Assay: NCI Yeast Anticancer Drug Screen. Data for the mec2-1 strain (AID 157)
Details: S. cerevisiae mec2-1 strain, at 50.0 µM, active compounds read high
Compounds without any hit were thinned out: in the full panel of roughly 79,000, 15% have a hit. Where a SMILES comes first, the peptide text is derived from it. [ ]: non-standard residue; d: D form. The star is where a group is joined. Cbz = O=C(OCc1ccccc1)*; Dha = C=C(N)C(=O)O
Recorded growth inhibition by entry

# Molecule, growth inhibition (%)
data = [
    ("Cc1ccc(/C=N/NC(=O)c2ccc(C)cc2)cc1", -10.2),
    ("O=C(NCc1ccccc1)C(O)c1ccccc1 (stereo not given)", 4.8),
    ("COc1cccc(C2NC(=O)c3c(n[nH]c3N)S2)c1O (stereo not given)", -43.4),
    ("C=C(NC(=O)C(C)NC(=O)OCc1ccccc1)C(=O)N1CCCC1C(=O)NC(C)C(=O)NC (stereo not given) (Cbz-A[Dha]PA-NHMe; configuration not given here)", -3.95),
    ("O=C(C#Cc1ccccc1)N1c2ccccc2CC1c1c[nH]c2ccccc12 (stereo not given)", -6.2),
    ("CCCCCCC1N(C(C#N)c2ccccc2)CCCN1C(C#N)c1ccccc1 (stereo not given)", 14.2),
    ("CCC(O)(c1ccccc1)c1ccccc1", 3.5),
    ("Nc1ncnc2c1ncn2C1OC(COP(=O)(O)OP(=O)(O)OCC2OC([n+]3cccc(C=O)c3)C(O)C2O)C(O)C1O (stereo not given)", 4.4),
    ("CN(C)CCC(c1ccccc1)C(CO)c1ccccc1 (stereo not given)", 8.75),
    ("CC(=O)c1cccc(C(C)=O)c1N=Cc1ccc(Cl)cc1", -27.9),
]

----------
// growth inhibition lookup, one value per entry
Experiment: NCI Yeast Anticancer Drug Screen. Data for the rad50 strain (AID 155);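 further: 0% = growth of vehicle-only cultures of the same strain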
Details: S. cerevisiae rad50 strain growth inhibition; at 50.0 µM; active compounds read high
The panel holds about 79,000 compounds, 15% with a hit somewhere; the sample as a whole holds those more often.
Recorded metric: growth inhibition (%)

# Molecule, Recorded value
data = [
    ("CC(=O)Oc1c(Br)cc(C(=O)c2ccccc2C(=O)c2cc(Br)c(OC(C)=O)c(Br)c2)cc1Br", 13.9),
    ("Cc1c([N+](=O)[O-])ccc2c(NCCCN(C)C)ccnc12", -2.5),
    ("CC(C)=NNC(=O)c1ccc(Cl)cc1", -19.1),
    ("O=C(Nc1ccc(Cl)c(Cl)c1)C(=O)Nn1c(=S)[nH]c2ccccc2c1=O", -4.05),
    ("COC1OC2COC(c3ccccc3)OC2C(OC(C)=O)C1OS(=O)(=O)c1ccc(C)cc1 (stereo unspecified)", -2.7),
    ("O=Cc1c(CO)cc(O)c(O)c1O", -12.4),
    ("C[Si](C)(C)Nc1ncnc2c1ncn2[Si](C)(C)C", 14.6),
    ("CN1CCc2c1nc(-c1ccc([N+](=O)[O-])cc1)c1c2N(C)CC1", 13.2),
    ("c1ccc(-c2nnn(-n3nnc(-c4ccccc4)n3)n2)cc1", -13),
    ("C1COCCN1.C1COCCN1.N.N.[Cl-].[Pt+2]", -9.5),
    ("Cc1cc(-c2cc(C)on2)no1", -44.7),
]

----------
Test: NCI Yeast Anticancer Drug Screen. Data for the mlh1 rad18 strain (AID 175)
Conditions: S. cerevisiae mlh1 rad18 strain growth inhibition; at 50.0 µM; active compounds read high
This is part of a sample that, as a whole, favours compounds with a hit. Of some 79,000 tested, about 15% had one in any assay. Activity calls are given as the source filed them. No stated cut-off is given here; in the data, active means growth inhibition above about 70%; inactive means the rest.
Overview of recorded growth inhibition for various molecules
Recorded metric: growth inhibition

# Molecule, Recorded value
rows = [
    ("CC12CCC3c4ccc(OC(=O)C56C=CC(=O)C5C5C=CC6CC5)cc4CCC3C1CCC2=O (centres undefined)", "0.05% (inactive)"),
    ("CC(C)CCCC(C)C1CCC2(C)C3CCC4C(C)(C)C(OCC(C)(C)C)CCC4(C)C3CCC12C (centres undefined)", "-5.4% (inactive)"),
    ("O=c1[nH]c2cc(Cl)ccc2nc1/C=C(\\O)c1ccc(O)cc1", "13.7% (inactive)"),
    ("Oc1cc(CN2CCOCC2)c(O)c(CN2CCOCC2)c1", "24.6% (inactive)"),
    ("COc1ccc(-c2cn3c(nc4ccccc43)c(C)n2)cc1", "-11.3% (inactive)"),
    ("O=C1NCCS(=O)(=O)N2CCC[C@@H]12", "-14.9% (inactive)"),
    ("O=C(CCSCCC(=O)N/N=C/c1ccccc1F)N/N=C\\c1ccccc1F", "21.8% (inactive)"),
    ("Cc1cccc(C)c1NC(=O)C(=O)C(C#N)c1ccccc1Cl (centres undefined)", "-11.5% (inactive)"),
    ("N#CCC1C2CC3C(C2=O)C13 (centres undefined)", "-39.8% (inactive)"),
    ("FC(F)(c1nnnn1Cc1ccccc1)C(F)(F)C(F)(F)C(F)(F)C(F)(F)C(F)(F)C(F)(F)C(F)(F)c1nnnn1Cc1ccccc1", "19.3% (inactive)"),
    ("Cc1cc[n+](CCc2c[nH]c3ccccc23)cc1C", "10.8% (inactive)"),
    ("C=COC(=O)C=C", "-9.15% (inactive)"),
    ("O=C1CCC2(c3ccccc3)Nc3ncccc3N12 (centres undefined)", "27.8% (inactive)"),
    ("COc1ccc(-c2cc(=O)cc(C(N)=O)o2)cc1", "17.2% (inactive)"),
    ("CCOC(=O)CN1C(=O)C(=O)N(c2ccc(OC)c3ccccc23)C1=O", "-27.6% (inactive)"),
    ("O=C(CN1C(=O)CC(c2ccccc2)(c2ccccc2)C1=O)N1CCN(CCO)CC1", "2.3% (inactive)"),
    ("O=C(O)/C(=C/c1ccccc1[N+](=O)[O-])c1cccs1", "8.9% (inactive)"),
    ("COc1ccc(CCc2ccc(Cl)cc2)cc1", "-4.5% (inactive)"),
    ("C=C(S(=O)(=O)c1ccccc1)S(=O)(=O)c1ccccc1 (tested in a mixture with another compound)", "94.9% (active)"),
]

----------
Test: NCI Yeast Anticancer Drug Screen. Data for the bub3 strain (AID 167)
Settings: S. cerevisiae bub3 mutant strain, at 50.0 µM
This is part of a sample that, as a whole, favours compounds with a hit. Of some 79,000 tested, about 15% had one in any assay. Activity calls are given as the source filed them. Rule as the data show it: active = growth inhibition above about 70%; inactive = the rest.
Possible outcomes: active, inactive

# Compound, Label class
records = [
    ("COC(=O)/C(=N/NC(C)(C)C)C(C(=O)C=C(C)C)C(=O)C(=O)Nc1ccc(Cl)cc1C (centres undefined)", "inactive"),
    ("S=c1[nH]n(-c2ccccc2)c(=S)s1", "inactive"),
    ("CCCCOC(=O)C(C)C(=O)CCC(C)CC (centres undefined)", "inactive"),
    ("COc1ccc(/C=C/C(=O)c2ccc(F)cc2)cc1", "inactive"),
    ("CCC1(c2ccccc2)Nc2ccccc2C1=Nc1ccccc1 (centres undefined)", "inactive"),
    ("Cc1cc(C(N)=O)c(C(N)=O)c(Cl)n1", "inactive"),
    ("CCCCCCC(=O)C/C(CCC(=O)N(Cc1ccccc1)Cc1ccccc1)=N\\NC(N)=O", "inactive"),
    ("NC(=O)c1ccccc1OC(=O)Nc1ccccc1", "inactive"),
    ("O=C(C=C(C(F)(F)F)C(F)(F)F)/C=C/c1ccccc1", "active"),
    ("COc1cc(CC(=O)c2ccc3c(c2)OCO3)cc(OC)c1OC", "inactive"),
    ("CCCc1nc2ccc(C)cc2[nH]1", "inactive"),
    ("Cc1ccc(C)c(NC(=O)C(=O)C(C#N)c2c(Cl)cccc2Cl)c1 (centres undefined)", "inactive"),
    ("O=[N+]([O-])c1ccc2c(Cl)[nH]nc2c1", "inactive"),
    ("Cn1c(-c2ccccc2)nc(-c2ccccc2)[n+]1[O-]", "inactive"),
    ("NC(=O)c1nnc2cc(F)c(F)cc2c1N", "inactive"),
    ("COc1cc([C@@H]2C3C(=O)c4ccccc4C3[C@@H](c3cc(OC)c(OC)c(OC)c3)C23Cc2ccccc2C3=O)cc(OC)c1OC (some centres undefined)", "inactive"),
    ("O=[N+]([O-])c1cccc(N=Cc2ccc(Cl)cc2)c1", "inactive"),
    ("CCCCNC(=O)Nc1cc(C)ccc1C", "inactive"),
    ("Cc1ccccc1C(=O)OCCBr", "inactive"),
]

----------
Test: NCI Yeast Anticancer Drug Screen. Data for the mec2-1 strain (AID 157)
Conditions: S. cerevisiae mec2-1 strain, at 50.0 µM
About 79,000 compounds went through this panel and 15% of them were active in at least one assay; those are over-represented in the sample as a whole. Calls of active or inactive are those of the source. Cut-off read from the data, not from the text of the source: active = growth inhibition above about 70%; inactive = the rest.
Classes used: active, inactive

# Compound, Label class
rows = [
    ("CCOC(=O)c1ccc(NC(=S)NC(=O)c2cccs2)o1", "inactive"),
    ("CCCCSc1nc2c(=O)n(C)c(=O)n(C)c2n1C", "inactive"),
    ("CC1(CO)CSC(Nc2ccc(F)cc2)=N1 (stereo not given)", "inactive"),
    ("CCOC(=O)C1=NN(c2ccc(C)cc2)C2=CC(C)=NN(C)C(=S)N21", "inactive"),
    ("CC(C)(C)n1nnnc1N", "inactive"),
    ("O=C(O)COc1ccccc1OCC(=O)O", "inactive"),
    ("Clc1ccc(CNc2ncnc3nc(Cl)[nH]c23)cc1", "inactive"),
    ("O=C1C=CC(=CC=C2C=CN(CCCCCCO)C=C2)C=C1", "inactive"),
    ("CCCCCCCCCCCCCCCC(=O)OCC(COP(=O)(O)OC1CCC2(C)C(=CCC3C2CCC2(C)C(C(C)CCCC(C)C)CCC32)C1)OC(=O)CCCCCCCCCCCCCCC (stereo not given)", "inactive"),
    ("[O-][n+]1ccc(Cl)cc1", "inactive"),
    ("Cc1ccc2ccccc2c1Cc1c(C=O)[nH]c(=S)[nH]c1=O", "active"),
    ("CNc1cc(S(=O)(=O)O)ccc1C", "inactive"),
    ("CC(C)(C)SC(=S)SCC(=O)c1cc2cc(Br)ccc2o1", "inactive"),
    ("CSc1nc(=S)c2[nH]c(Cl)nc2[nH]1", "inactive"),
    ("O=C(O)C1CC1Br (stereo not given)", "inactive"),
    ("COc1ccccc1C(O)(c1ccccc1OC)C1(O)CCN(C)CC1", "inactive"),
    ("CC1=NN(c2ccc([N+](=O)[O-])cc2)C(=O)C1", "inactive"),
    ("CN(C)N=Nc1c(F)cccc1F", "inactive"),
    ("COc1ccc(OC)c(N=Cc2ccc(C=Nc3cc(OC)ccc3OC)cc2)c1", "inactive"),
    ("CCC(C(C)=O)C(C)=O", "inactive"),
]
